Parameter: Kd. Scope: all listed entries.
molecular target: T1, human programmed cell death protein 1 (hPD-1) C93S (aa 24-167) (Homo sapiens, UniProt Q15116, C93S); assay: SPR; Carterra LSA; Fab from the ammonium sulfate precipitate of the culture supernatant immobilised on a NiHC200M chip; hPD-1 (1-1024 nM) or mPD-1-Fc (4-1024 nM) as analyte, fourfold dilution series, no regeneration; HBS-EP pH 7.4, 25 °C; medians over the spots of a construct, KD = koff/kon; settings: one partner purified
T1 construct: made as a fusion with a TEV site and human Fc; the Fc was cut off with TEV protease; source: Expi293F, purified (Protein A, TEV cleavage of Fc, SEC; monomer fractions); not shown: Fc (human), C-terminal, cleaved
T1 sequence (Q15116 24-167 C93S): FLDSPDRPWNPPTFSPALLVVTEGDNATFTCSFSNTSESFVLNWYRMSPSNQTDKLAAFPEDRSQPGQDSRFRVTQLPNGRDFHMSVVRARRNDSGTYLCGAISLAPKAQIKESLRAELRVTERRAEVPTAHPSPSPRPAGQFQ
property_label: Kd

binder="toripalimab Fab L.R59Y (Fab, V domains shown, as the heavy chain of Sm3; light chain of Sm3 with this change; numbers count from the chain's first residue; source: Brevibacillus, culture supernatant (ammonium sulfate precipitate); not shown: 6xHis, C-terminal, kept; 6xHN, C-terminal, kept) VH: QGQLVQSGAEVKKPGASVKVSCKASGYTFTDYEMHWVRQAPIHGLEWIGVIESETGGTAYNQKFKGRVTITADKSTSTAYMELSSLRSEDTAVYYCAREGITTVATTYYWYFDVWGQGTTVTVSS VL: DVVMTQSPLSLPVTLGQPASISCRSSQSIVHSNGNTYLEWYLQKPGQSPQLLIYKVSNYFSGVPDRFSGSGSGTDFTLKISRVEAEDVGVYYCFQGSHVPLTFGQGTKLEIK" result="< 0.356 nM"
binder="toripalimab Fab L.L101I (Fab, V domains shown, as the heavy chain of Sm3; light chain of Sm3 with this change; numbers count from the chain's first residue; source: Brevibacillus, culture supernatant (ammonium sulfate precipitate); not shown: 6xHis, C-terminal, kept; 6xHN, C-terminal, kept) VH: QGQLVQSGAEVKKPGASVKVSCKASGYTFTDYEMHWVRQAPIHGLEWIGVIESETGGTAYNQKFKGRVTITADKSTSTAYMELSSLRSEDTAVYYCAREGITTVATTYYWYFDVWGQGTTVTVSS VL: DVVMTQSPLSLPVTLGQPASISCRSSQSIVHSNGNTYLEWYLQKPGQSPQLLIYKVSNRFSGVPDRFSGSGSGTDFTLKISRVEAEDVGVYYCFQGSHVPITFGQGTKLEIK" result="< 1.55 nM"
binder="toripalimab Fab L.S32A (Fab, V domains shown, as the heavy chain of Sm3; light chain of Sm3 with this change; numbers count from the chain's first residue; source: Brevibacillus, culture supernatant (ammonium sulfate precipitate); not shown: 6xHis, C-terminal, kept; 6xHN, C-terminal, kept) VH: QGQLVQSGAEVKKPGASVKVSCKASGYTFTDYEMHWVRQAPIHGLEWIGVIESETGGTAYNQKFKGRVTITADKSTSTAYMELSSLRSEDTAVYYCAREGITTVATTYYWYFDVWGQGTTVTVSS VL: DVVMTQSPLSLPVTLGQPASISCRSSQSIVHANGNTYLEWYLQKPGQSPQLLIYKVSNRFSGVPDRFSGSGSGTDFTLKISRVEAEDVGVYYCFQGSHVPLTFGQGTKLEIK" result="< 1.35 nM"
